Below, each of the binders is paired with its reported koff value.
TARGET UNDER TEST: T1, cynomolgus CD38 ECD (cynomolgus, UniProt Q5VAN0 44-301, biotinylated on the AviTag during preparation)
T1 construct: also called Cyno-CD38; Avi-Cyno CD38 ECD
ASSAY PROCEDURE: SPR (Biacore 8K), antibody captured, antigen injected;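 note: antibodies held on a CM5 chip through anti-human IgG Fc, antigen in 3-fold serial dilutions, 1 min association then 10 min dissociation at 25 °C, 1:1 Langmuir global fit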
Lab note: write values as number then unit, every time.

23D1 (antibody, human IgG1, kappa, V domains shown, Rabbit-human chimeric anti-CD38: rabbit VH and VL on human IgG1 and kappa constant regions) VH: QELVESGGGLFQPGGSLALTCKASGFSLSNIYVMCWVRQAPGKGLEWIACIGTGSGDTDYATWAKGRFTISKTSSTTVTLQMTSLTAADTATYFCARDPGAGTWNLWGPGTLVTVSS VL: DIVMTQTPSSVEAAVGGTVTIKCQASQTIGSRLAWYQQKPGQPPKLLIYSASTLASGVSSRFKGSGSGTQFTLTISDLDSADAATYYCQSYYYTSTSYPNAFGGGTEVVVKR = 0.000294 s⁻¹
26D4 (antibody, human IgG1, kappa, V domains shown, Rabbit-human chimeric anti-CD38: rabbit VH and VL on human IgG1 and kappa constant regions) VH: QEQLEESGGDLVKPEGSLTLTCTASGFSFSNDAICWVRQAPGKGLEWIACIYAGSGNTYYASWAKGRFSISKTSSTTVTLQMTSLTVADTATYFCASADTIDYFNLWGPGTLVTVSS VL: AQVLTQTPSPVSAAVGGTVTINCQASQSVYNNNYLAWYQQKPGQPPKLLIYRASNLASGVPSRFSASGSGTQFTLTISEVQSDDAATYYCQAYYRDPTTAFGGGTEVVVKR = 0.0313 s⁻¹

Okay, now this binder:
# koff lookup, item 22H6 (antibody, human IgG1, kappa, V domains shown, Rabbit-human chimeric anti-CD38: rabbit VH and VL on human IgG1 and kappa constant regions) VH: QSVEESGGRLVTPGTPLTLTCTVSGFSLSNNAISWVRQAPGKGLQWIGSIYGSGNTYYATWAKGRFTVSKTSTTVDLKINSPTTEDTATYFCAREGAGSSWGFNLWGPGTLVTVSS VL: AQVLTQTASSVSAAVGGTVTISCQSSESVYKNNYLSWYQQKPGQPLKCLIYSASTLASGVPSRFKGSGSGTQFTLTISDLESDDAATYYCAGGYSGNINGFGGGTEVVVKR 0.0352 s⁻¹
